- assay target: T1, ZFP SBS#265 (synthetic)
- T1 chain: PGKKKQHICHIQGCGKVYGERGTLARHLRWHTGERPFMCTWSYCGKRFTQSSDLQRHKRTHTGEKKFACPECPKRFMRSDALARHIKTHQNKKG
- experimental protocol: EMSA
- experimental context: tags: MBP fusion
pKd: −log10 of the molar value.
measured metric: pKd

INSERT INTO assay_data (binder, measured_metric, recorded_measurement) VALUES
  ('GTGGCTGCC (dsDNA) DNA 1: GTGGCTGCC DNA 2: GGCAGCCAC', 'pKd', 6.22);
